B1: HDAC6 (parent)
chain: KMKTRELHRESSNFDSIYICPSTF

variants of: B1; test: protein stability index of a GFP-peptide fusion (GPS, HEK-293T) (PSI 1-6); higher = more stable; conditions: c terminus: a fixed tail appended;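 further: lentivirally expressed fusions sorted by FACS into six bins by GFP to DsRed ratio, PSI derived from sequencing read proportions per bin multiplied by bin number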
Each entry gets condition not met if its protein stability index stays under 2, and condition met if its protein stability index is 2 or above.

The examples below pair each entry with its known result.
* S11R | condition not met
* H8G | condition met
* S22D | condition met
* F24Q | condition met

Prompt: Does the reported protein stability index for `E6P` fall at or above the 2 mark?
Completion: condition not met

Prompt: Does the reported protein stability index for `F24S` fall at or above the 2 mark?
Completion: condition met

Prompt: Does the reported protein stability index for `E10S` fall at or above the 2 mark?
Completion: condition not met
